- Experimental target: α-amylase (Homo sapiens)
- Sequence (P04746 16-511): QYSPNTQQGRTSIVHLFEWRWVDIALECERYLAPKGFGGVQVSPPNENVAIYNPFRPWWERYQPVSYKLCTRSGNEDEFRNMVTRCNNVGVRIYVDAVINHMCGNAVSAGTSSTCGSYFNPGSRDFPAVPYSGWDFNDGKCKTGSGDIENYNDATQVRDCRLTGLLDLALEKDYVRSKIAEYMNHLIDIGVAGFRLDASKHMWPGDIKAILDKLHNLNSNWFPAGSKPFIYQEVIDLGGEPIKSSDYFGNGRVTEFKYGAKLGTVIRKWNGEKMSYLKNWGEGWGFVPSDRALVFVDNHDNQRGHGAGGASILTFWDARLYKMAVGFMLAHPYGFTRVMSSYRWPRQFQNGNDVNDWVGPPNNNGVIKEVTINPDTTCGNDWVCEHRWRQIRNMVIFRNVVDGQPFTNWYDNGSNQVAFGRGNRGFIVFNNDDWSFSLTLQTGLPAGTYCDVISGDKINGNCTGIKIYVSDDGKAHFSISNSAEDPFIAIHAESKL
Please provide measured pIC50 for the entries that follow.
Answers are plain numbers, as −log10 of the molar value.

Compound	pIC50
O=c1cc(-c2cccc(O)c2)oc2cccc(O)c12 [Molecule M14, 5,3′-dihydroxyflavone]	5.17
O=c1cc(-c2ccccc2)oc2cc(O)cc(O)c12 [Molecule M1, 5,7-dihydroxyflavone]	4.44
O=c1cc(-c2ccccc2)oc2cccc(O)c12 [Molecule M4, 5-hydroxyflavone]	4.42
COc1ccc(-c2cc(=O)c3c(O)cc(O[C@@H]4O[C@H](CO[C@@H]5O[C@@H](C)[C@H](O)[C@@H](O)[C@H]5O)[C@@H](O)[C@H](O)[C@H]4O)cc3o2)cc1O	5.43
O=c1cc(-c2cc(O)cc(O)c2)oc2ccccc12 [Molecule M8, 3′,5′-dihydroxyflavone]	4.83

**Q:** Please report pIC50 with α-amylase (Homo sapiens) for item COc1ccc(-c2oc3c(CC=C(C)C)c(O[C@@H]4O[C@H](CO)[C@@H](O)[C@H](O)[C@H]4O)cc(O)c3c(=O)c2O[C@@H]2O[C@@H](C)[C@H](O)[C@@H](O)[C@H]2O)cc1 .
**A:** 4.85

---

Please provide measured pIC50 for the entries that follow.
- Experimental target: superoxide dismutase (SOD) (Homo sapiens, UniProt P00441)
- Sequence (P00441 whole entry): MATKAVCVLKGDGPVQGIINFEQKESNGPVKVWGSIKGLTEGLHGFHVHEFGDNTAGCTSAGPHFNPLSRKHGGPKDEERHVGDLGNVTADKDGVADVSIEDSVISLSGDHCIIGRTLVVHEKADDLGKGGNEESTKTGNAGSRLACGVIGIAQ
- Measurement notes: biochemical
- Conditions used: read-out: Anti SOD IC50
pIC50: −log10 of the molar value.

The examples below pair each entry with its known result.
Compound	pIC50
O=c1cc(-c2cc(O)cc(O)c2)oc2ccccc12 [Molecule M8, 3′,5′-dihydroxyflavone]	< 4.30
CC1OC(Oc2c(-c3cc(O)c(O)c(O)c3)oc3cc(O)cc(O)c3c2=O)C(O)C(O)C1O (centres unmarked) [Molecule M20, myricitrin dihydrate]	< 4.00
O=c1cc(-c2cccc(O)c2)oc2ccc3ccccc3c12 [Molecule M9, 3′-hydroxy-b-naphthoflavone]	< 4.00
Cc1ccc(-c2cc(=O)c3cc(O)ccc3o2)cc1 [Molecule M17, 6-hydroxy-4′-methylflavone]	< 4.30
Cc1ccc2oc(-c3cccc(O)c3)cc(=O)c2c1 [Molecule M16, 3′-hydroxy-6-methylflavone]	< 4.00
O=c1cc(-c2ccccc2)oc2cc(O)c(O)c(O)c12 [Molecule M7, 5,6,7-trihydroxyflavone]	4.50

Could you report pIC50 for every entry in the following list?
1. COc1ccc(-c2cc(=O)c3c(O)cc(O[C@@H]4O[C@H](CO[C@@H]5O[C@@H](C)[C@H](O)[C@@H](O)[C@H]5O)[C@@H](O)[C@H](O)[C@H]4O)cc3o2)cc1O
2. O=c1cc(-c2cccc(O)c2)oc2cc(O)ccc12 [Molecule M13, 7,3′-dihydroxyflavone]
3. O=c1cc(-c2cccc(O)c2)oc2c1ccc1ccccc12 [Molecule M10, 3′-hydroxy-a-naphthoflavone]
4. COc1ccc(-c2oc3c(CC=C(C)C)c(O[C@@H]4O[C@H](CO)[C@@H](O)[C@H](O)[C@H]4O)cc(O)c3c(=O)c2O[C@@H]2O[C@@H](C)[C@H](O)[C@@H](O)[C@H]2O)cc1
5. COc1cc(-c2cc(=O)c3ccc4c(O)cccc4c3o2)cc(OC)c1OC
6. COc1cccc(-c2cc(=O)c3c(O)cccc3o2)c1 [Molecule M11, 5-hydroxy-3′-methoxyflavone]

**A:**
["< 4.30", "< 4.30", "< 4.00", "< 4.30", "< 4.00", "< 4.00"]

Could you report pIC50 for every entry in the following list?
1. O=c1cc(-c2ccccc2)oc2ccc(O)cc12 [Molecule M3, 6-hydroxyflavone]
2. O=c1cc(-c2cccc(O)c2)oc2cccc(O)c12 [Molecule M14, 5,3′-dihydroxyflavone]

**A:**
1. < 4.30
2. < 4.00
